Values from patent US6372756B1

# Tested on: interleukin-2 (IL-2) synthesis in OKT3-stimulated PBMCs
# Procedure Summary: OKT3-stimulated human peripheral blood mononuclear cell assay, IL-2 secretion by ELISA
# Type: cell-based
# Measurement Setup: Homo sapiens, PBMC; OKT3 (1 μg/l) for 14 hours; curve fit; three independent experiments; read-out: IC50 of inhibition of IL-2 synthesis
Readout Name: IC50 (µM)
Give bare numbers, in µM.

Query :: So what does the record say about IC50 for COC1=C[C@@H]2[C@@H]3Cc4ccc(OC)c(O)c4[C@]2(CCN3C)CC1=O [sinomenine, reference compound] ?
Result :: 100

---

# System: interleukin-2 (IL-2) synthesis in OKT3-stimulated PBMCs
# Procedure Summary: OKT3-stimulated human peripheral blood mononuclear cell assay, IL-2 secretion by ELISA
# Type: cell-based
# Measurement Setup: OKT3 (1 μg/l) for 14 hours; curve fit; three independent experiments; read-out: IC50 of inhibition of IL-2 synthesis
Readout Name: IC50
Express the reported value numerically, then name its unit.

Query :: Which IC50 is reported with interleukin-2 (IL-2) synthesis in OKT3-stimulated PBMCs for this entry: COC1=C[C@H]2[C@H]3Cc4ccc(OC)c(O)c4[C@@]2(CCN3)CC1=O ?
Result :: 20 µM
